protocol.summary: gradient 5% acetonitrile 3 min, to 50% in 2 min, to 85% in 15 min, held 3 min, 100 µL/min
protocol.conditions: column: Zorbax Extend-C18 2.1 x 50 mm; eluents: water / acetonitrile, 0.1% formic acid
readout: RP-LC retention time
For clarity, give the value followed by its unit.

# count of solved cases: 6
1) CCn1cc(-c2nc(C)c(C(=O)NCc3cccs3)s2)c2cccnc21 = 926 s
2) COc1cc(OC)cc(C(=O)N(C)CCc2noc(C3CCCCC3)n2)c1 = 926 s
3) O=C(NC1CCCCC1)c1ccc(Nc2c(-c3ccc(Cl)cc3)nc3cnccn23)cc1 = 909 s
4) CC(C)(C)c1ccc(C(=O)Nc2cnc(N3CCOCC3)nc2)cc1 = 923 s
5) CC(C)OCCCNC(=O)C1CCCN(c2ccc(-c3ccccc3)nn2)C1 (configuration not stated) = 683 s
6) CCN(CC)C(=O)[C@@H]1[C@H](c2cc(OC)c(OC)c(OC)c2)c2cc3c(cc2[C@H](O)[C@H]1CO)OCO3 = 679 s

Here is the next item to consider.
Exercise: Recall and state the measured RP-LC retention time for CCOc1ccccc1CNC(=O)c1ccc2c(c1)NC(=O)C1CCCCN21 (configuration not stated) .
Key: 876 s
